experiment: Metabolic stability in hepatic microsomes (human); format: in vitro ADME; details: human hepatic microsomes 0.5 mg/ml, compound 1 μM, 37° C., pH 7.4, 30 min
Property label: Met. human (percentage of the compound remaining after 30 min incubation)

The examples below pair each entry with its known result.
Molecule | Test value
CN1CCN(c2ccccc2C(=O)/C=C/c2ccc(/C=C/C(=O)NO)cc2)CC1 | 38.16%
O=C(/C=C/c1ccc(/C=C/C(=O)c2ccc(N3CCNCC3)cc2)cc1)NO | 42.58%
O=C(/C=C/c1ccc(/C=C/C(=O)c2ccc(N3CCNCC3)cc2)cn1)NO | 53.65%
C[C@@H]1CN(c2cccc(C(=O)/C=C/c3ccc(/C=C/C(=O)NO)nc3)c2)C[C@H](C)N1C | 37.29%
O=C(/C=C/c1ccc(/C=C/C(=O)c2cccs2)cn1)NO [Ref (*) 71, reference compound] | 21.82%

Then there is this molecule:
So what's the measured Met. human (percentage of the compound remaining after 30 min incubation) for this one? O=C(/C=C/c1ccc(/C=C/C(=O)c2ccc(F)c(F)c2)cn1)NO [Ref (*) 72, reference compound]
15.32%

====

experiment: Metabolic stability in hepatic microsomes (mouse); assay type: in vitro ADME; details: mouse hepatic microsomes 0.5 mg/ml, compound 1 μM, 37° C., pH 7.4, 30 min
Property label: Met. mouse (percentage of the compound remaining after 30 min incubation) (%)
Give your result in % as a bare value.

The examples below pair each entry with its known result.
Molecule | Test value
O=C(/C=C/c1ccc(/C=C/C(=O)c2ccccc2)cn1)NO [Ref (*) 69, reference compound] | 5.65
CN1CCN(Cc2ccc(C(=O)/C=C/c3ccc(/C=C/C(=O)NO)cc3)cc2)CC1 [Example 7] | 16.75
CN(C)C1CCN(c2ccc(C(=O)/C=C/c3ccc(/C=C/C(=O)NO)cc3)cc2)CC1 [Example 4] | 14.00
CN1CCN(c2ccc(C(=O)/C=C/c3ccc(/C=C/C(=O)NO)cc3)cc2)CC1 [Ref (*) 59, reference compound] | 9.12
CN1CCN(c2ccccc2C(=O)/C=C/c2ccc(/C=C/C(=O)NO)cc2)CC1 [Example 1] | 33.81

So what's the measured Met. mouse (percentage of the compound remaining after 30 min incubation) for this one? C[C@@H]1CN(c2cccc(C(=O)/C=C/c3ccc(/C=C/C(=O)NO)nc3)c2)C[C@H](C)N1C [Example 43]
42.45

So what's the measured Met. mouse (percentage of the compound remaining after 30 min incubation) for this one? CN1CCN(Cc2ccccc2C(=O)/C=C/c2ccc(/C=C/C(=O)NO)nc2)CC1 [Example 47]
52.66

So what's the measured Met. mouse (percentage of the compound remaining after 30 min incubation) for this one? O=C(/C=C/c1ccc(/C=C/C(=O)c2ccc(N3CCOCC3)cc2)c(F)c1)NO [Ref (*) 29, reference compound]
11.17

So what's the measured Met. mouse (percentage of the compound remaining after 30 min incubation) for this one? C[C@@H]1CN(c2ccc(C(=O)/C=C/c3ccc(/C=C/C(=O)NO)nc3)cc2)C[C@H](C)N1C [Example 39]
20.29

====

Catalogue of Met. human (percentage of the compound remaining after 30 min incubation) readings, one per entry.
Assay: Metabolic stability in hepatic microsomes (human)
Assay type: in vitro ADME
Conditions: human hepatic microsomes 0.5 mg/ml, compound 1 μM, 37° C., pH 7.4, 30 min
Procedure: The test compound was dissolved in DMSO at the final concentration of 1 μM and pre-incubated for 10 min at 37° C. in potassium phosphate buffer pH 7.4 together with mouse or human hepatic microsomes (Xenotech) at the final concentration of 0.5 mg/ml. […] The percentage of the compound remaining after 30 min incubation period was calculated according the following equation: [area at time 30 min]/[area at time 0 min]*100%.
Remember to follow the number with its unit.

The examples below pair each entry with its known result.
Molecule | Test value
O=C(/C=C/c1ccc(/C=C/C(=O)c2ccc(N3CCOCC3)cc2)c(F)c1)NO [Ref (*) 29, reference compound] | 20.86%
CN1CCC(Cc2ccc(C(=O)/C=C/c3ccc(/C=C/C(=O)NO)nc3)cc2)CC1 | 34.38%
CN1CCN(c2ccc(C(=O)/C=C/c3ccc(/C=C/C(=O)NO)cc3)cc2)CC1 [Ref (*) 59, reference compound] | 33.29%
CC(=O)N1CCN(c2ccc(C(=O)/C=C/c3ccc(/C=C/C(=O)NO)nc3)cc2)CC1 | 35.27%

Then there is this molecule:
So what's the measured Met. human (percentage of the compound remaining after 30 min incubation) for this one? CN1CCN(c2cc(Cl)cc(C(=O)/C=C/c3ccc(/C=C/C(=O)NO)cc3)c2)CC1
57.28%
